Target or system: CYP3A4 (CYP3A) (Homo sapiens);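 note: inhibition of CYP3A-mediated 1-hydroxymidazolam formation after 10 min incubation with NADPH, quantified by HPLC MS relative to metabolite produced without test compound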
Sequence (P08684 2-503): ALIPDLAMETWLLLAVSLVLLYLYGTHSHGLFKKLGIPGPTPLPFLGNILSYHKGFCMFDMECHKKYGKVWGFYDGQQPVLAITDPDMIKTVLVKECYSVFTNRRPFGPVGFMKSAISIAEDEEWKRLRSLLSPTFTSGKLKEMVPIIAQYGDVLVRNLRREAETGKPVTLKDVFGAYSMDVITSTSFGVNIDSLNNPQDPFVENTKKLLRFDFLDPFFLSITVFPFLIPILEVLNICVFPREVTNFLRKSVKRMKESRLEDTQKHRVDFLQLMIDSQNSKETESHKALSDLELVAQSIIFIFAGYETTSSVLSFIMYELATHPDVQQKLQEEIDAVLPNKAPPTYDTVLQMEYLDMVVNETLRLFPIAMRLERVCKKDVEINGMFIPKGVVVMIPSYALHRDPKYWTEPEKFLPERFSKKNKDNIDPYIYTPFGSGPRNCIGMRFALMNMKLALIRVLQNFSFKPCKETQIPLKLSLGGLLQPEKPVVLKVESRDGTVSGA
Protocol description: in vitro
Condition parameters: microsomes, pH 7.4
A collection of molecules and their measured IC50

| Molecule | Unit abbreviation | Limit operator | IC50 |
| --- | --- | --- | --- |
| CC(C)(C)Cc1cnc2c(c1)[C@@H](NC[C@@H](O)[C@H](Cc1ccc3c(c1)OCO3)NC(=O)C1CCS(=O)(=O)C1)CC1(CCC1)O2 (stereo partly shown) [compound 779] | nM | = | 100 |
| COCC(=O)N[C@@H](Cc1cc(F)cc(F)c1)[C@H](O)CN[C@H]1CC2(CCC2)Oc2c1cc(CC(C)C)nc2-c1cncn1C [compound 715] | nM | ≤ | 30 |
| COCC(=O)N[C@@H](Cc1cccc(-c2nccs2)c1)[C@H](O)CN[C@H]1CC2(CCC2)Oc2ncc(CC(C)(C)F)cc21 [compound 813] | nM | = | 500 |
| COC(OC)C(=O)N[C@@H](Cc1cccc(-c2nccs2)c1)[C@H](O)CN[C@H]1CC2(CCC2)Oc2ncc(CC(C)C)cc21 [Example 816] | nM | = | 300 |
| CCC(=O)N[C@@H](Cc1ccc2c(c1)OCO2)[C@H](O)CN[C@H]1CC2(CCC2)Oc2ncc(CC(C)C)cc21 [compound 726] | nM | ≤ | 30 |
| COCC(=O)N[C@@H](Cc1cc(F)cc(F)c1)[C@H](O)CN[C@H]1CC2(CCC2)Oc2c1cc(CC(C)(C)C)cc2-n1ccnc1 [compound 475] | nM | = | 50 |
| COCC(=O)N[C@@H](Cc1cc(F)cc(-c2nc(C)cs2)c1)[C@H](O)CN[C@H]1CC2(CCC2)Oc2ncc(CC(C)C)cc21 [compound 733] | nM | ≤ | 30 |
| CO[C@H](C)C(=O)N[C@@H](Cc1cc(F)cc(F)c1)[C@H](O)CN[C@H]1CC2(CCC2)Oc2c1cc(CC(C)(C)C)nc2-n1ccnc1 [compound 495] | nM | = | 100 |
| COCC(=O)N[C@@H](Cc1cccc([C@@H]2CCCO2)c1)[C@H](O)CN[C@H]1CC2(CCC2)Oc2ncc(CC(C)(C)C)cc21 [compound 915] | nM | = | 600 |
| CN1CCO[C@H](C(=O)N[C@@H](Cc2ccc(F)cc2)[C@H](O)CN[C@H]2CC3(CCC3)Oc3ncc(CC(C)(C)C)cc32)C1 [compound 744] | nM | = | 900 |
| CC#Cc1cccc(C[C@H](NC(=O)COC)[C@H](O)CN[C@H]2CC3(CCC3)Oc3ncc(CC(C)C)cc32)c1 [compound 802] | nM | = | 100 |
| CC(=O)N[C@@H](Cc1cc(F)cc(F)c1)[C@H](O)CN[C@H]1CC2(CCC2)Oc2c1cc(CC(C)(C)C)nc2-c1cncs1 [compound 481] | nM | = | 200 |
| CO[C@H](C)C(=O)N[C@@H](Cc1ccc(O)c(O)c1)[C@H](O)CN[C@H]1CC2(CCC2)Oc2ncc(CC(C)(C)C)cc21 [compound 651] | nM | = | 1600 |

====

Target or system: CYP2D6 (Homo sapiens)
Sequence (P10635 whole entry): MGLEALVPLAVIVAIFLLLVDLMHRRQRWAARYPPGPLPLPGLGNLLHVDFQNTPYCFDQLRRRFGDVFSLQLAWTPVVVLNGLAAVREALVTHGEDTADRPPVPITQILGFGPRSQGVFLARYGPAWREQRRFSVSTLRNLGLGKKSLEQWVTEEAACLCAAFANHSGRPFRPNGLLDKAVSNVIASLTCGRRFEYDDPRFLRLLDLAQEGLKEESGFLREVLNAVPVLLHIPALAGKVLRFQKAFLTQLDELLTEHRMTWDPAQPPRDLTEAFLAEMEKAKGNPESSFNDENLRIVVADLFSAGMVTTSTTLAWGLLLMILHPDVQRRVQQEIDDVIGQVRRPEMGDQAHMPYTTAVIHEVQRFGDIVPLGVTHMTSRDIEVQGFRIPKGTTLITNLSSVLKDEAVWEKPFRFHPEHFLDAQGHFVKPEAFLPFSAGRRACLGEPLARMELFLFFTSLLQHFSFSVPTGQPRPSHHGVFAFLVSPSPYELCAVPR
Protocol description: CYP2D6 inhibition assay (bufuralol, pooled human liver microsomes)
Condition parameters: 2D6 IC50 (uM), CYP enzyme inhibition
Recorded endpoint: IC50 (µM)

| Structure string | Limit operator | Reported result |
| --- | --- | --- |
| COCC(=O)N[C@@H](Cc1cc(F)cc(-c2nccs2)c1)[C@H](O)CN[C@H]1CC2(CCC2)Oc2ncc([C@@H]3CC3(C)C)cc21 | = | 0.3 |
| C#Cc1cc(F)cc(C[C@H](NC(=O)[C@@H](C)OC)[C@H](O)CN[C@H]2CC3(CCC3)Oc3ncc(CC(C)(C)C)cc32)c1 | = | 2.5 |
| COCC(=O)N[C@H](Cc1cccc(-c2nccs2)c1)[C@@H](O)CN[C@H]1CC2(CCC2)Oc2ncc(C3CCCC3)cc21 | = | 0.5 |
| COC(OC)C(=O)N[C@@H](Cc1ccc2c(c1)OCO2)[C@H](O)CN[C@H]1CC2(CCC2)Oc2ncc(CC(C)(C)C)cc21 | = | 5.4 |
| CO[C@H](C)C(=O)N[C@@H](Cc1ccc(F)c(-c2nccs2)c1)[C@H](O)CN[C@H]1CC2(CCC2)Oc2ncc(CC(C)C)cc21 | = | 0.4 |
| COC(OC)C(=O)N[C@@H](Cc1cccc(-c2nccs2)c1)[C@H](O)CN[C@H]1CC2(CCC2)Oc2ncc(CC(C)C)cc21 | = | 0.7 |
| COC(OC)C(=O)N[C@@H](Cc1cccc(C#N)c1)[C@H](O)CN[C@H]1CC2(CCC2)Oc2ncc(CC(C)(C)C)cc21 | = | 4.7 |
| CO[C@H](C)C(=O)N[C@@H](Cc1cc(F)cc(F)c1)[C@H](O)CN[C@H]1CC2(CCC2)Oc2c(-c3ccncc3)cc(Cl)cc21 | = | 0.4 |
| COCC(=O)N[C@@H](Cc1cccc(F)c1)[C@H](O)CN[C@H]1CC2(CCC2)Oc2nc3c(cc21)[C@H](C(C)C)CO3 | = | 2 |
| CC(C)Cc1cnc2c(c1)[C@@H](NC[C@@H](O)[C@H](Cc1ccc3c(c1)OCO3)NC(=O)[C@@H]1CCCO1)CC1(CCC1)O2 | = | 3.7 |
| CO[C@H](C)C(=O)N[C@@H](Cc1ccc(F)cc1)[C@H](O)CN[C@H]1CC2(CCC2)Oc2c1cc(CC(C)(C)C)nc2-c1ccncc1 | = | 0.6 |
| CC(C)Cc1cnc2c(c1)[C@@H](NC[C@@H](O)[C@H](Cc1ccc3c(c1)OCO3)NC(=O)[C@H]1CCCO1)CC1(CCC1)O2 | = | 5.7 |
| COCC(=O)N[C@@H](Cc1ccc(F)cc1)[C@H](O)CN[C@H]1CC2(CCC2)Oc2c1cc(CC(C)(C)C)nc2C#N | = | 11.6 |
| COCC(=O)N[C@@H](Cc1ccc2c(c1)OCO2)[C@H](O)CN[C@H]1CC2(CCC2)Oc2ccc(C[C@H](C)F)cc21 | = | 0.5 |
| CC(C)OCC(=O)N[C@@H](Cc1ccc(F)cc1)[C@H](O)CN[C@H]1CC2(CCC2)Oc2ncc(CC(C)(C)C)cc21 | = | 23.8 |
| CC(=O)N[C@@H](Cc1ccc2c(c1)OCO2)[C@H](O)CN[C@H]1CC2(CCC2)Oc2ncc(CC(F)(F)F)cc21 | = | 7.8 |
| COCC(=O)N[C@@H](Cc1ccc2c(c1)OCO2)[C@H](O)CN[C@H]1CC2(CCC2)Oc2c(-c3ccccn3)cc(CC(C)C)cc21 | = | 3.6 |
| C#Cc1cccc(C[C@H](NC(=O)COC)[C@H](O)CN[C@H]2CC3(CCC3)Oc3ncc(CC(C)(F)F)cc32)c1 | = | 2.3 |
| CO[C@H](C)C(=O)N[C@@H](Cc1cc(F)cc(F)c1)[C@H](O)CN[C@H]1CC2(CCC2)Oc2ncc(CC(C)(C)C#N)cc21 | = | 14.5 |
| CC(C)(C)Cc1cnc2c(c1)[C@@H](NC[C@@H](O)[C@H](Cc1ccc(F)cc1)NC(=O)[C@@H]1CCO1)CC1(CCC1)O2 | ≥ | 27 |
| CC(=O)N[C@@H](Cc1ccc(F)cc1)[C@H](O)CN[C@H]1CC2(CCC2)Oc2c1cc(CC(C)(C)C)nc2N1CCOCC1 | = | 3.6 |
| CO[C@H](C)C(=O)N[C@@H](Cc1cccc(-c2nccs2)c1)[C@H](O)CN[C@H]1CC2(CCC2)Oc2ncc(CC(C)(C)F)cc21 | = | 0.8 |
| CO[C@H](C)C(=O)N[C@@H](Cc1cc(F)cc(Cl)c1)[C@H](O)CN[C@H]1CC2(CCC2)Oc2ncc(CC(C)(F)F)cc21 | = | 3.8 |
| COCC(=O)N[C@@H](Cc1cc(F)cc(F)c1)[C@H](O)CN[C@@H]1CC2(CCC2)Oc2c1cc(CC(C)(C)C)nc2-c1cnc[nH]1 | = | 2.3 |
| COCC(=O)N[C@@H](Cc1cccc(F)c1)[C@H](O)CN[C@H]1CC2(CCC2)Oc2ccc(C[C@@H](C)F)cc21 | = | 1.1 |
